Biological target: Carbonic anhydrase 7 (Homo sapiens) (UniProt P43166)
Sequence (P43166 whole entry): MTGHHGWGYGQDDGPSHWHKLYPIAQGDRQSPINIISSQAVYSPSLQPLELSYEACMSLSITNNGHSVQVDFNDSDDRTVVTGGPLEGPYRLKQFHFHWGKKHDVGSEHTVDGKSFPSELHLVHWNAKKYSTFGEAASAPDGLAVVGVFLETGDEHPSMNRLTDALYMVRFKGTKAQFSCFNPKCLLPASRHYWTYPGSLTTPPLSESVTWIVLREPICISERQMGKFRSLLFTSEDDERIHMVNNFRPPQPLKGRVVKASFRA
Assay: Activation of human carbonic anhydrase VII by stopped flow CO2 hydrase assay
Settings: Brain, filed as activator
measured property: Ka (µM)

C(=N\CCc1c[nH]cn1)/c1ccc(/C=N/CCc2c[nH]cn2)cc1    9.02
C(=N/CCc1c[nH]cn1)/c1ccc(/C=N/CCc2c[nH]cn2)o1    0.085
C(=N/CCc1c[nH]cn1)/c1ccccc1/C=N/CCc1c[nH]cn1    21.3

P: C(=N/CCc1c[nH]cn1)/c1cccc(/C=N/CCc2c[nH]cn2)c1
Q: c1nc2c([nH]1)C(c1ccc(C3NCCc4nc[nH]c43)cc1)NCC2 (stereo not given)
Exercise: When their Ka values are compared, which is larger, P or Q ? Mark your selection by writing its label.
Key: P

* * *

Target: Carbonic anhydrase 7 (Homo sapiens)
Assay: Activation of human carbonic anhydrase VII by stopped flow CO2 hydrase assay
Settings: Brain, filed as activator
measured property: Ka (µM)

c1nc2c([nH]1)C(c1ccc(C3NCCc4nc[nH]c43)o1)NCC2 (stereo not drawn)    0.035

A: c1cc(C2NCCc3nc[nH]c32)cc(C2NCCc3nc[nH]c32)c1 (stereo not drawn)
B: NCCc1c[nH]cn1
Exercise: When their Ka values are compared, which is larger, A or B ? Mark your selection by writing its label.
Key: B
